These measurements were taken from patent US11883387B2.

Biological target: PqsR (Pseudomonas aeruginosa, UniProt Q9I4X0)
Sequence (Q9I4X0 whole entry): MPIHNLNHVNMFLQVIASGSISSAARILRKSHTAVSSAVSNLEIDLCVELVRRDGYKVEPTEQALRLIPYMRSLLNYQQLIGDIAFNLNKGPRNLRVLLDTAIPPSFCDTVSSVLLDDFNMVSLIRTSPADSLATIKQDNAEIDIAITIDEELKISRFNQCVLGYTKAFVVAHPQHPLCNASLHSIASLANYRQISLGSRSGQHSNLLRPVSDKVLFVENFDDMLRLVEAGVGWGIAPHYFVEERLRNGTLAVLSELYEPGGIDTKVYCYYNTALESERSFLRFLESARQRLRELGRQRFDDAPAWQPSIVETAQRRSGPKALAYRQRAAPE
Assay: E. coli based β-galactosidase reporter gene assay (PqsR inverse agonistic activity)
Type: cell-based
Parameters: expressed in transfected cells; host or cells: Escherichia coli DH5α
// values below are reported IC50

Look over these answered cases.
FC(F)(F)c1cc(NCc2cn(-c3ccc(Oc4cccnc4)cc3)nn2)ccn1    ≤ 50 nM
CC(C)Oc1ccc(-n2cc(CNc3ccnc([N+](=O)[O-])c3)nn2)cc1Cl    ≤ 50 nM
FC(F)(F)c1cc(NCc2cn(-c3ccc(OC4CCOC4)c(Cl)c3)nn2)ccn1 (stereo not shown)    ≤ 50 nM

Quick check: IC50 on PqsR (Pseudomonas aeruginosa, UniProt Q9I4X0), item FC(F)(F)c1nc(Cl)cc(SCc2nc3cc(Oc4ccccc4)ccc3[nH]2)n1 ?
251 to 1000 nM

Quick check: IC50 on PqsR (Pseudomonas aeruginosa, UniProt Q9I4X0), item COc1ccc(-n2cc(CNc3ccnc(C(F)(F)F)c3)nn2)cc1Cl ?
≤ 50 nM

Quick check: IC50 on PqsR (Pseudomonas aeruginosa, UniProt Q9I4X0), item FC(F)(F)c1cc(SCc2nc3cc(Cl)c(Cl)cc3[nH]2)ccn1 ?
51 to 250 nM

Quick check: IC50 on PqsR (Pseudomonas aeruginosa, UniProt Q9I4X0), item Fc1ccc(-n2cc(CNc3ccnc(C(F)(F)F)c3)nn2)cc1 ?
51 to 250 nM
